# Test system: A549 (human lung cancer) cells
# method: MTT cell growth inhibition, solid tumor cells
# Assay type: cell-based
# cond: Homo sapiens; A549, 72 h, MTT; read-out: IC90
result type: IC90 (µg/mL)
State the answer as a number, implicitly in µg/mL.

Answered examples (10):
IN: Recorded IC90 of COc1ccc2cc1Oc1ccc(cc1)C[C@H]1c3cc(c(OC)cc3CCN1C)Oc1c(OCC(O)CN3CCCC(C)C3)c(OC)cc3c1[C@H](C2)N(C)CC3 (stereo partly drawn) , please.
OUT: 6.8

IN: Would you mind telling me what IC90 value was observed for COc1ccc2cc1Oc1ccc(cc1)C[C@H]1c3cc(c(OC)cc3CCN1C)Oc1c(OCC(O)CN3CCCCC3)c(OC)cc3c1[C@H](C2)N(C)CC3 (stereo partly drawn) ?
OUT: 6.34

IN: For the compound shown here, COc1ccc2cc1Oc1ccc(cc1)C[C@H]1c3cc(c(OC)cc3CCN1C)Oc1c(OCC3CC3)c(OC)cc3c1[C@H](C2)N(C)CC3 , give the reported IC90.
OUT: 13.1

IN: I would be grateful if you could share the reported IC90 for COc1ccc2cc1Oc1ccc(cc1)C[C@H]1c3cc(c(OC)cc3CCN1C)Oc1c(OS(=O)(=O)c3ccccc3)c(OC)cc3c1[C@H](C2)N(C)CC3 .
OUT: 3.94

IN: For COc1ccc2cc1Oc1ccc(cc1)C[C@H]1c3cc(c(OC)cc3CCN1C)Oc1c(OCc3cccc(F)c3F)c(OC)cc3c1[C@H](C2)N(C)CC3 , what is its reported IC90?
OUT: 3.94

IN: Please give the measured IC90 for this compound: COc1ccc2cc1Oc1ccc(cc1)C[C@H]1c3cc(c(OC)cc3CCN1C)Oc1c(OC(=O)c3c(F)cccc3Cl)c(OC)cc3c1[C@H](C2)N(C)CC3
OUT: 3.48

IN: Fill in: IC90 of COc1ccc2cc1Oc1ccc(cc1)C[C@H]1c3cc(c(OC)cc3CCN1C)Oc1c(OC3CCCC3)c(OC)cc3c1[C@H](C2)N(C)CC3 is ___
OUT: 4.97

IN: Item under review: C=C(C)COc1c(OC)cc2c3c1Oc1cc4c(cc1OC)CCN(C)[C@H]4Cc1ccc(cc1)Oc1cc(ccc1OC)C[C@@H]3N(C)CC2 . Reported IC90?
OUT: 3.18

IN: Which IC90 reading was recorded for the compound COc1cc(OC)cc(C(=O)Oc2c(OC)cc3c4c2Oc2cc5c(cc2OC)CCN(C)[C@H]5Cc2ccc(cc2)Oc2cc(ccc2OC)C[C@@H]4N(C)CC3)c1 ?
OUT: 4.38

IN: Which IC90 is reported for this compound? COc1ccc2cc1Oc1ccc(cc1)C[C@H]1c3cc(c(OC)cc3CCN1C)Oc1c(OC(=O)c3ccc(N(C)C)cc3)c(OC)cc3c1[C@H](C2)N(C)CC3
OUT: 3.16

Next:
IN: // returns reported IC90 for input COc1ccc2cc1Oc1ccc(cc1)C[C@H]1c3cc(c(OC)cc3CCN1C)Oc1c(OCc3ccc(C(F)(F)F)cc3)c(OC)cc3c1[C@H](C2)N(C)CC3
OUT: 5.9

IN: Could you share which IC90 value was measured for COc1ccc2cc1Oc1ccc(cc1)C[C@H]1c3cc(c(OC)cc3CCN1C)Oc1c(OCC(O)CN3CCSCC3)c(OC)cc3c1[C@H](C2)N(C)CC3 (stereo partly drawn) ?
OUT: 11.7
